System: PC-14
Test: relative viability (nuclei count vs DMSO), 5 days (fraction); higher = more cells survive
Details: first compound 0.04 µM
The compounds listed here are annotated with their relative viability.

# COMPOUND, relative viability
measured = [
    ("O=C(O)c1ccc(-c2c[nH]c3ncc(-c4ccccc4)cc23)cc1C1CCCC1 + CS(=O)(=O)N1CCN(Cc2cc3nc(-c4cccc5[nH]ncc45)nc(N4CCOCC4)c3s2)CC1 [Pictilisib] (partner 1 µM)", 0.765),
    ("O=C(O)c1ccc(-c2c[nH]c3ncc(-c4ccccc4)cc23)cc1C1CCCC1 + Cc1nc(NC(=O)N2CCC[C@H]2C(N)=O)sc1-c1ccnc(C(C)(C)C(F)(F)F)c1 [Alpelisib] (partner 2 µM)", 0.933),
    ("O=C(O)c1ccc(-c2c[nH]c3ncc(-c4ccccc4)cc23)cc1C1CCCC1 + CCNC(=O)c1noc(-c2cc(C(C)C)c(O)cc2O)c1-c1ccc(CN2CCOCC2)cc1 [Luminespib] (partner 0.01 µM)", 0.225),
    ("O=C(O)c1ccc(-c2c[nH]c3ncc(-c4ccccc4)cc23)cc1C1CCCC1 + CC1(C)CCC(c2ccc(Cl)cc2)=C(CN2CCN(c3ccc(C(=O)NS(=O)(=O)c4ccc(N[C@H](CCN5CCOCC5)CSc5ccccc5)c(S(=O)(=O)C(F)(F)F)c4)cc3)CC2)C1 [Navitoclax] (partner 0.5 µM)", 1.01),
]

----------
Tested on: NCI-H1703
Experiment: relative viability (nuclei count vs DMSO), 5 days (fraction); higher = more cells survive
Details: first compound 0.8 µM

# COMPOUND, MEASUREMENT TARGET, relative viability
data = [
    ("C=C1C(=O)O[C@@H](CCCCCCCC)[C@@H]1C(=O)O [C-75] + COc1cc2c(Oc3ccc(NC(=O)C4(C(=O)Nc5ccc(F)cc5)CC4)cc3F)ccnc2cc1OCCCN1CCOCC1 [Foretinib] (partner 0.25 µM)", "NCI-H1703", 0.325),
    ("C=C1C(=O)O[C@@H](CCCCCCCC)[C@@H]1C(=O)O [C-75] + O=C(c1cc(Cc2n[nH]c(=O)c3ccccc23)ccc1F)N1CCN(C(=O)C2CC2)CC1 [Olaparib] (partner 8 µM)", "NCI-H1703", 0.348),
    ("Oc1nc(-c2ccc(C(F)(F)F)cc2)nc2c1CSCC2 [XAV939] + COc1cc2c(Oc3ccc(NC(=O)C4(C(=O)Nc5ccc(F)cc5)CC4)cc3F)ccnc2cc1OCCCN1CCOCC1 [Foretinib] (partner 0.25 µM)", "NCI-H1703", 0.416),
    ("C=C1C(=O)O[C@@H](CCCCCCCC)[C@@H]1C(=O)O [C-75] + NC(=O)Nc1cc(-c2cccc(F)c2)sc1C(=O)N[C@H]1CCCNC1 [AZD7762] (partner 0.2 µM)", "NCI-H1703", 0.115),
    ("Oc1nc(-c2ccc(C(F)(F)F)cc2)nc2c1CSCC2 [XAV939] + NC(=O)Nc1cc(-c2cccc(F)c2)sc1C(=O)N[C@H]1CCCNC1 [AZD7762] (partner 0.2 µM)", "NCI-H1703", 0.138),
]

----------
// reported relative viability per item
System: NCI-H1666
Assay: relative viability (nuclei count vs DMSO), 5 days (fraction); higher = more cells survive
Conditions: first compound 2.53 µM

# COMPOUND, relative viability
rows = [
    ("C=C1C(=O)O[C@@H](CCCCCCCC)[C@@H]1C(=O)O [C-75] + Cc1cc(Nc2cc(N3CCN(C)CC3)nc(Sc3ccc(NC(=O)C4CC4)cc3)n2)n[nH]1 [Tozasertib] (partner 0.1 µM)", 0.613),
    ("Oc1nc(-c2ccc(C(F)(F)F)cc2)nc2c1CSCC2 [XAV939] + O=C(CCCCCCC(=O)Nc1ccccc1)NO [Vorinostat] (partner 1 µM)", 1.15),
    ("Oc1nc(-c2ccc(C(F)(F)F)cc2)nc2c1CSCC2 [XAV939] + O=C(c1cc(Cc2n[nH]c(=O)c3ccccc23)ccc1F)N1CCN(C(=O)C2CC2)CC1 [Olaparib] (partner 8 µM)", 0.754),
]
